# target under test: E. coli TP (Escherichia coli, UniProt P07650)
# Construct: purchased Sigma
# Sequence (P07650 whole entry): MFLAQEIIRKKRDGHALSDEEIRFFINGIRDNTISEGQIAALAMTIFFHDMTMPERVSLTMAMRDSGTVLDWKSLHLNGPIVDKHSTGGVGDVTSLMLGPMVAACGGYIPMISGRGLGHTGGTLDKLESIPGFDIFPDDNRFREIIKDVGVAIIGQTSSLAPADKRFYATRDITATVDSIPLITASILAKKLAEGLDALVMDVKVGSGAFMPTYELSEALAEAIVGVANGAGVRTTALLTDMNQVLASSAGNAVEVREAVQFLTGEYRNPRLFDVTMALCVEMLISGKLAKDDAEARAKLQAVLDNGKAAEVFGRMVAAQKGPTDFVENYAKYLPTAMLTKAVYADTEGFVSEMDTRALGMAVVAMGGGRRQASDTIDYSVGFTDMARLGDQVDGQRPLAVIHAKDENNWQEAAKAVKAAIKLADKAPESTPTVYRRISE
# protocol summary: Enzyme activity assay with recombinant E. coli TP (positive control)
# Assay type: biochemical
# recorded conditions: 16 hours; 0.025 U TP; 200 μM substrate
metric: Percent conversion of nucleoside to the free pyrimidine base, recombinant E. coli TP
I'd appreciate it if you included the unit after the number.

C[C@H]1O[C@@H](n2cc(F)c(=O)[nH]c2=O)[C@H](O)[C@@H]1O [5′DFUR, 5-fluoro-5′-deoxyuridine] :: 64%
O=c1[nH]c(=O)n([C@H]2C[C@H](O)[C@@H](CO)O2)cc1F [FdUrd, 5-fluoro-2′-deoxyuridine] :: 63%
Cc1cn([C@H]2C[C@H](O)[C@@H](CO)O2)c(=O)[nH]c1=O [dThd, thymidine] :: 93%

Now for the molecule whose Percent conversion of nucleoside to the free pyrimidine base, recombinant E. coli TP we want.
Reported Percent conversion of nucleoside to the free pyrimidine base, recombinant E. coli TP of O=c1[nH]c(=O)n([C@H]2C[C@H](O)[C@@H](CO)O2)cc1C(F)(F)F [TFT, 5-trifluorothymidine] : 85%

* * *

In this section we review reported IC50 values for a set of molecules.
# Test system: MCF-7 cells
# protocol summary: Tumor cell proliferation assay, uninfected MCF-7 cells
# Assay type: cell-based, human
# recorded conditions: Homo sapiens, MCF7; uninfected MCF-7; with 10 μM TPi; read-out: IC50 MCF-7 +TPi (10 μM)
Please give a number only; it is taken to be in nM.

O=c1[nH]c(=O)n([C@H]2C[C@H](O)[C@@H](CO)O2)cc1Cl :: 640

Reported IC50 of O=c1[nH]c(=O)n([C@H]2C[C@H](O)[C@@H](CO)O2)cc1Br : 360

Reported IC50 of Nc1nc(Cl)nc2c1ncn2[C@H]1C[C@H](O)[C@@H](CO)O1 : 390

Reported IC50 of Nc1ccn([C@@H]2O[C@H](CO)[C@@H](O)C2(F)F)c(=O)n1 : 6.3

* * *

In this section we review reported IC50 values for a set of molecules.
# Tested on: MCF-7 cells
# protocol summary: Tumor cell proliferation assay, uninfected MCF-7 cells
# Format: cell-based, human
# recorded conditions: Homo sapiens, MCF7; uninfected MCF-7; with 10 μM TPi; read-out: IC50 MCF-7 +TPi (10 μM)
Please give a number only; it is taken to be in nM.

Some molecules with recorded IC50:
Nc1ccn([C@@H]2O[C@H](CO)[C@@H](O)[C@@H]2O)c(=O)n1 :: 48
O=c1[nH]c(=O)n([C@H]2C[C@H](O)[C@@H](CO)O2)cc1I :: 980
O=c1[nH]cc(F)c(=O)[nH]1 :: 620

Now for the molecule whose IC50 we want.
Reported IC50 of O=c1[nH]c(=O)n([C@H]2C[C@H](O)[C@@H](CO)O2)cc1F : 3

* * *

# Test system: MCF-7 cells
# protocol summary: Tumor cell proliferation assay, uninfected MCF-7 cells
# Format: cell-based, human
# recorded conditions: uninfected MCF-7; no TPi; 4 days; read-out: IC50 MCF-7 As such
metric: pIC50
Hey, just a heads up that pIC50 is the negative log base 10 of the concentration in molar.

Reported pIC50 of O=c1[nH]c(=O)n([C@H]2C[C@H](O)[C@@H](CO)O2)cc1C(F)(F)F [TFT, 5-trifluorothymidine] : 6.41
